Measured cleaved RNA product abundance, listed per entry.
# Tested on: Bacillus subtilis
# TEST NAME: cleaved RNA product abundance (RNA/gDNA barcode ratio) relative to median wild-type variant (ratio to wild type); higher = more accumulation of the downstream cleavage product
# REPORTED CONDITIONS: experiment (reporter, strain, medium): exp 8a: truncated aprE reporter, strain BJT201 with 2% xylose (RNase J1 expressed); cleavage site: glnRA (positions -5 to +31 mutated)
MEASUREMENT TYPE: cleaved RNA product abundance

SEQUENCE STRING	NUMBER
CGACATGTCCCGCTTCTTTCATTAATCCATTAGCAACTGTTTTGCTATATACATTTATCTTTTAAGAGGAGGAAT	0.777
CGACATGTCCCGCTTCTTTCATTAATCCGTTAGCAACTGTTTAGCTATATACATTTGCCTTTTAAGAGGAGGAAT	0.326
CGACATGTCCCGCTTCTTTCATTAATCCGTTAGCAACTGTTTTGCTATATACATTTATCTTTTAAGAGGAGGAAT	1.27
CGACATGTCCCGCTTCTTTCATTAATCCCTTAGCAACTGTTTTGCTGTATACATTTACCTTTTAAGAGGAGGAAT	0.108

From: the supplement of paper PMC11780869
